# system under test: recombinant human non-muscle myosin 2 NM2A (Homo sapiens, UniProt P35579)
# Sequence (P35579 whole entry): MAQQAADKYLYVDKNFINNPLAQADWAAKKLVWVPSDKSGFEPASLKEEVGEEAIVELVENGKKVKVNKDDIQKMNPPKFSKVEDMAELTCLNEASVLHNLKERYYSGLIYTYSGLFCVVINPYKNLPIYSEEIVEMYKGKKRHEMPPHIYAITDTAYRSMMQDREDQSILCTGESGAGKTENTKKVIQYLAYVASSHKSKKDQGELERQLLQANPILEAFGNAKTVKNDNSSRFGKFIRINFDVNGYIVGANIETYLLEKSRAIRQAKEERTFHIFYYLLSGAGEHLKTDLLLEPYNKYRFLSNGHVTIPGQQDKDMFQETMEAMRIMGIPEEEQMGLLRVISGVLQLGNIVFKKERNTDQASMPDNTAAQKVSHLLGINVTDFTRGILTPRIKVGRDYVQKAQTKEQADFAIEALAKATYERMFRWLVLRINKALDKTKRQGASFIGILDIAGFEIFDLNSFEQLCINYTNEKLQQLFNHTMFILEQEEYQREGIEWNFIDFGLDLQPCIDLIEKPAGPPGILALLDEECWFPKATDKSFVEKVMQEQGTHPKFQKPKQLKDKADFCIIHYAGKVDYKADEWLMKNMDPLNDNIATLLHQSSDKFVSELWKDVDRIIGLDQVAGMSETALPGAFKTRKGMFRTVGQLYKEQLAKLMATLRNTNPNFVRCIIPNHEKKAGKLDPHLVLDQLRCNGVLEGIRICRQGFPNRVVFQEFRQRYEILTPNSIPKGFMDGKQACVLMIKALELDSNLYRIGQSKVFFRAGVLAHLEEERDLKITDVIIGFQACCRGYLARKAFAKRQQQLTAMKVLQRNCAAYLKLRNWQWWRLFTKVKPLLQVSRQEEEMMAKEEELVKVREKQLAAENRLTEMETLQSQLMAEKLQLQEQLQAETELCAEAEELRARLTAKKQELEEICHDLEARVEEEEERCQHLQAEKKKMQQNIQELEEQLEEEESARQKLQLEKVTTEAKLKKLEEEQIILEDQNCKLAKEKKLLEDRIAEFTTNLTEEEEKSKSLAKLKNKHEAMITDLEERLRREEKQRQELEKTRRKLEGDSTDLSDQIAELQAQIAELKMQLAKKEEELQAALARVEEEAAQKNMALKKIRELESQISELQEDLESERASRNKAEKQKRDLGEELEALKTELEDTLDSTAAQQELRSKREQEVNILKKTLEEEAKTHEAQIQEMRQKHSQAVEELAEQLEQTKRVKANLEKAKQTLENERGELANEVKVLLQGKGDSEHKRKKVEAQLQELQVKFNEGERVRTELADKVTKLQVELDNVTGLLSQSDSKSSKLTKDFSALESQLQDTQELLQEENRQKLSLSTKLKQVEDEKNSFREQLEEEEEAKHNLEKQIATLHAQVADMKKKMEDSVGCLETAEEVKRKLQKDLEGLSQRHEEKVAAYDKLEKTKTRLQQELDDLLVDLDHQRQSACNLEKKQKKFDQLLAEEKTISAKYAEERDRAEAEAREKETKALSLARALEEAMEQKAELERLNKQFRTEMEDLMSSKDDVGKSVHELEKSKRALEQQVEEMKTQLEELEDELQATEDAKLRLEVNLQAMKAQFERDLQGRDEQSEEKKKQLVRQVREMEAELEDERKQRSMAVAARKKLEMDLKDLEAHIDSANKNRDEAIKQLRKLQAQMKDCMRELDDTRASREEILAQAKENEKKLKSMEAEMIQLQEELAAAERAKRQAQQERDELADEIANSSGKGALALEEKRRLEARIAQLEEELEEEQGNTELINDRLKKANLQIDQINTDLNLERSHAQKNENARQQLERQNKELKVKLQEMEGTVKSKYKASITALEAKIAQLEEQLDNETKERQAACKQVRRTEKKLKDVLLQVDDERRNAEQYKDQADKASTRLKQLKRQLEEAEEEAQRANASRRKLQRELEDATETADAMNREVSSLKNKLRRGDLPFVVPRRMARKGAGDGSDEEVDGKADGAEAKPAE
# test description: actomyosin steady state ATPase measurement, NM2A
# Type: biochemical
# test parameters: concentration required for semi-maximal inhibition of ATPase
Label satisfied when IC50 < 20 µM; otherwise not satisfied.

Example cases with answers are listed next.
> print(dat)
                                   molecule                         system.under.test  assigned.class
1  COc1ccc(N2CC[C@@]3(O)C(=O)c4ccsc4N=C23)cc1  recombinant human non-muscle myosin 2 NM2A (Homo sapiens, UniProt P35579)   not satisfied
2  O=C1c2ccsc2N=C2N(c3ccccc3)CCC12O (stereo not drawn)  recombinant human non-muscle myosin 2 NM2A (Homo sapiens, UniProt P35579)       satisfied
3  Cc1cc2c(s1)N=C1N(c3ccc(N4CCOCC4)cc3)CCC1(O)C2=O (stereo not drawn)  recombinant human non-muscle myosin 2 NM2A (Homo sapiens, UniProt P35579)       satisfied

IN: Is it true that IC50 reported for `N#Cc1ccc(N2CC[C@@]3(O)C(=O)c4ccsc4N=C23)cc1` is less than 20 µM?
OUT: not satisfied

IN: Lab note: IC50 threshold 20 µM. Does this molecule come in strictly under it? O=C1c2ccncc2N=C2N(c3ccccc3)CCC12O (stereo not drawn)
OUT: satisfied

IN: Does the reported IC50 of O=C1c2ccsc2N=C2N(c3ccc(N4CCOCC4)cc3)CCC12O (stereo not drawn) stay below 20 µM?
OUT: not satisfied
